TEST_SYSTEM: Adenosine receptor A2a and A3 (Rattus norvegicus) (UniProt P30543+P28647)
Sequence (P28647 whole entry, looked up): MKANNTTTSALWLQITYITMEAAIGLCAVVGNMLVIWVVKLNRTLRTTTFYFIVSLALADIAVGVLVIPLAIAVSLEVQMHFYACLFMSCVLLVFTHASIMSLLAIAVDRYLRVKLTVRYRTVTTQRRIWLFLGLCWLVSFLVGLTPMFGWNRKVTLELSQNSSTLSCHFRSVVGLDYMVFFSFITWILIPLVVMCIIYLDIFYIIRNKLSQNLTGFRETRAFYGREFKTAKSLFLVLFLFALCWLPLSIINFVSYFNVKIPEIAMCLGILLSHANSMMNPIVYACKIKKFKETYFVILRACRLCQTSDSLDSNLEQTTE
Sequence (P30543 whole entry, looked up): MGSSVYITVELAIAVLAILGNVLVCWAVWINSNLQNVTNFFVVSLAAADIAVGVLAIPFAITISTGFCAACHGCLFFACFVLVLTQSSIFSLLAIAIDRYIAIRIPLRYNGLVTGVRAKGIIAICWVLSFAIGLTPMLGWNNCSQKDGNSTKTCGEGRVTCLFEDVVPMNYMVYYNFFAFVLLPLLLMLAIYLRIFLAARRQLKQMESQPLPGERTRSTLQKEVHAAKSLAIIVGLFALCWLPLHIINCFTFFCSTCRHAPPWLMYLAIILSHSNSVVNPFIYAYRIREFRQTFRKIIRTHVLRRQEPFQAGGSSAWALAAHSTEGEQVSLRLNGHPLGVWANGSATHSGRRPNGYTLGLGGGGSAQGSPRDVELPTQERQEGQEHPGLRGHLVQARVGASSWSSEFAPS
ASSAY_PROCEDURE: Ratio of the binding affinities against rat brain A2a and A3 receptors, KiA2a/KiA3.
EXPERIMENTAL_ENDPOINT: Ratio

{"CHEMICAL_STRUCTURE": "CSc1nc(NCc2cccc(I)c2)c2ncn(C)c2n1", "MEASUREMENT": 5.5}
{"CHEMICAL_STRUCTURE": "CNC(=O)[C@@H]1C[C@@H](OC(C)=O)[C@H](n2cnc3c(NCc4cccc(I)c4)nc(Cl)nc32)O1", "MEASUREMENT": 250}
{"CHEMICAL_STRUCTURE": "CN(C)c1nc(NCc2cccc(I)c2)c2ncn(C)c2n1", "MEASUREMENT": 0.66}
{"CHEMICAL_STRUCTURE": "COc1nc(NCc2cccc(I)c2)c2ncn(C)c2n1", "MEASUREMENT": 0.068}
{"CHEMICAL_STRUCTURE": "OCCn1cnc2c(NCc3cccc(I)c3)ncnc21", "MEASUREMENT": 0.24}
{"CHEMICAL_STRUCTURE": "Cn1cnc2c(NC3CCCC3)ncnc21", "MEASUREMENT": 0.0083}

1 = OC[C@@H](O)Cn1cnc2c(NCc3cccc(I)c3)ncnc21
2 = Cn1cnc2c(NCc3cccc(I)c3)nc(Sc3ccncc3)nc21
3 = CNC(=O)[C@H]1O[C@@H](n2cnc3c(NCc4cccc(I)c4)nc(Cl)nc32)[C@@H]2OC(=S)O[C@@H]21
Challenge: Sort (3 compounds) by Ratio: min first. List the labels, following the order given in the request.
Response given: 2, 1, 3
